For each entry below, report its fitness value.
Test system: S. pneumoniae D39V;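 further: OD595 on entry to stationary phase over no-drug wells; at most 1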
Experiment: fitness (endpoint OD595 vs no drug) (fraction); higher = more growth
Conditions: first compound 1.073 µg/mL; partner 4 µg/mL

- Compound: "Cc1ncc([N+](=O)[O-])n1CCO [Metronidazole] + O=C1CN(/N=C/c2ccc([N+](=O)[O-])o2)C(=O)N1 [Nitrofurantoin]"
  fitness: 0.929

Give me fitness for each of these compounds, listed below.
1. Cc1ncc([N+](=O)[O-])n1CCO [Metronidazole] + CN[C@@H]1[C@H](O[C@H]2[C@H](O[C@H]3[C@H](O)[C@@H](O)[C@H](N=C(N)N)[C@@H](O)[C@@H]3N=C(N)N)O[C@@H](C)[C@]2(O)C=O)O[C@@H](CO)[C@H](O)[C@H]1O [Streptomycin]
2. Cc1ncc([N+](=O)[O-])n1CCO [Metronidazole] + COc1ccc(C[C@H](N)C(=O)N[C@H]2[C@@H](O)[C@H](n3cnc4c(N(C)C)ncnc43)O[C@@H]2CO)cc1 [Puromycin]
3. Cc1ncc([N+](=O)[O-])n1CCO [Metronidazole] + CN[C@@H]1[C@H](O)[C@H](NC)[C@H]2O[C@@]3(O)C(=O)C[C@@H](C)O[C@H]3O[C@@H]2[C@H]1O [Spectinomycin]

Result ::
[0.992, 0.874, 0.94]

----------
Tested on: B. subtilis 168
Experiment: Bliss interaction score (quartile over a dose matrix) (fitness difference); higher = more antagonism (negative = synergy)
For each entry below, report its Bliss interaction score value.

Give me Bliss interaction score for each of these compounds, listed below.
1. CO/N=C(\C(=O)N[C@@H]1C(=O)N2C(C(=O)O)=C(COC(C)=O)CS[C@H]12)c1csc(N)n1 [Cefotaxime] + CC[C@H]1OC(=O)[C@H](C)[C@@H](O[C@H]2C[C@@](C)(OC)[C@@H](O)[C@H](C)O2)[C@H](C)[C@@H](O[C@@H]2O[C@H](C)C[C@H](N(C)C)[C@H]2O)[C@](C)(OC)C[C@@H](C)C(=O)[C@H](C)[C@@H](O)[C@]1(C)O [Clarithromycin]
2. CO/N=C(\C(=O)N[C@@H]1C(=O)N2C(C(=O)O)=C(COC(C)=O)CS[C@H]12)c1csc(N)n1 [Cefotaxime] + CN(N=O)C(=O)N[C@@H](C=O)[C@@H](O)[C@H](O)[C@H](O)CO [Streptozotocin]

Result ::
1: 0.0567; 2: 0.0848

----------
Test system: S. aureus DSM 20231
Test: Bliss interaction score (quartile over a dose matrix) (fitness difference); higher = more antagonism (negative = synergy)
Answer N if Bliss interaction score is under 0.05, and Y if it is 0.05 or more.

Worked set:
- Compound: "COc1cccc2c1C(=O)c1c(O)c3c(c(O)c1C2=O)C[C@@](O)(C(=O)CO)C[C@@H]3O[C@H]1C[C@H](N)[C@H](O)[C@H](C)O1 [Doxorubicin] + C[C@H]1COc2c(N3CCN(C)CC3)c(F)cc3c(=O)c(C(=O)O)cn1c23 [Levofloxacin]"
  Assigned Category: "Y"
- Compound: "O=C(O)c1cn(C2CC2)c2cc(N3CCNCC3)c(F)cc2c1=O [Ciprofloxacin] + CCC[C@@H]1C[C@@H](C(=O)N[C@@H]([C@H]2O[C@H](SC)[C@H](O)[C@@H](O)[C@H]2O)[C@H](C)Cl)N(C)C1 [Clindamycin]"
  Assigned Category: "Y"
- Compound: "CC(=O)Oc1ccccc1C(=O)O [Acetylsalicylicacid] + O=C(N[C@H](CO)[C@H](O)c1ccc([N+](=O)[O-])cc1)C(Cl)Cl [Chloramphenicol]"
  Assigned Category: "N"
- Compound: "COc1cccc2c1C(=O)c1c(O)c3c(c(O)c1C2=O)C[C@@](O)(C(=O)CO)C[C@@H]3O[C@H]1C[C@H](N)[C@H](O)[C@H](C)O1 [Doxorubicin] + Cc1onc(-c2ccccc2)c1C(=O)N[C@@H]1C(=O)N2[C@@H]1SC(C)(C)[C@@H]2C(=O)O [Oxacillin]"
  Assigned Category: "N"
- Compound: "N#CC(C#N)=NNc1cccc(Cl)c1 [CCCP] + CC1(C)S[C@@H]2[C@H](NC(=O)Cc3ccccc3)C(=O)N2[C@H]1C(=O)O [PenicillinG]"
  Assigned Category: "N"

Query :: Has C[C@H]1c2cccc(O)c2C(=O)C2=C(O)[C@]3(O)C(=O)C(C(N)=O)=C(O)[C@@H](N(C)C)[C@@H]3[C@@H](O)[C@@H]21 [Doxycycline] + CC(=O)S[C@@H]1CC2=CC(=O)CC[C@]2(C)[C@H]2CC[C@@]3(C)[C@@H](CC[C@@]34CCC(=O)O4)[C@H]12 [Spironolactone] a recorded Bliss interaction score greater than or equal to 0.05?
Result :: Y

Query :: Has CN(C)c1cc(NC(=O)CNC(C)(C)C)c(O)c2c1C[C@H]1C[C@H]3[C@H](N(C)C)C(O)=C(C(N)=O)C(=O)[C@@]3(O)C(O)=C1C2=O [Tigecycline] + Oc1cc(Cl)ccc1Oc1ccc(Cl)cc1Cl [Triclosan] a recorded Bliss interaction score greater than or equal to 0.05?
Result :: Y
